# experimentalTarget: T1, human CD33 extracellular domain (human, UniProt P20138 18-259)
# T1 construct: soluble monomeric ECD; also called human CD33 ECD; hCD33
# procedureDetails: SPR, Fab captured, 37C
Please assign -1 whenever Kd is at or above 2 nM, and 1 whenever it is below.

The examples below pair each entry with its known result.
- binder: "ADI-11828 Fab (Fab, V domains shown, Fab fragment; also called Ab27) VH: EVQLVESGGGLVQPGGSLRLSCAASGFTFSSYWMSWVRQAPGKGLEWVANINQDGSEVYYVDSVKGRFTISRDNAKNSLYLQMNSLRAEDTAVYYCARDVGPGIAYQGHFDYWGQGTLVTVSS VL: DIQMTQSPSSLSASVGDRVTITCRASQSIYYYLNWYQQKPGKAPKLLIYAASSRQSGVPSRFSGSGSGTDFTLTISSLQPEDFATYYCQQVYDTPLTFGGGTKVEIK"
  discreteLabel: -1
- binder: "ADI-10161 Fab (Fab, V domains shown, Fab fragment; also called Ab16) VH: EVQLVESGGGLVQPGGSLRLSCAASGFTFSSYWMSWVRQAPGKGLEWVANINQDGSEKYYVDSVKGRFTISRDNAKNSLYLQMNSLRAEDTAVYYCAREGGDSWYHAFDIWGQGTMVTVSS VL: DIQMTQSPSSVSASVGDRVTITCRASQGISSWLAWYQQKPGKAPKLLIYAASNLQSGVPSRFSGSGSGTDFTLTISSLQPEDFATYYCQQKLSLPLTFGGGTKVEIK"
  discreteLabel: -1

Would you kindly verify if Kd of ADI-11839 Fab (Fab, V domains shown, Fab fragment; also called Ab28) VH: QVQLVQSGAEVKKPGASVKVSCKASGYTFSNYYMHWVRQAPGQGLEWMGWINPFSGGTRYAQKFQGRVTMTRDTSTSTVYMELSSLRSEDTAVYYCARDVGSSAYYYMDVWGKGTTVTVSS VL: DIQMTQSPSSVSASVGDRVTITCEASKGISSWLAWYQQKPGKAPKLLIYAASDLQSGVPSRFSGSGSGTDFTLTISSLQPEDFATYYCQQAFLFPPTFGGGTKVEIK is strictly less than 2 nM?
-1

Is it true that Kd reported for ADI-11812 Fab (Fab, V domains shown, Fab fragment; also called Ab24) VH: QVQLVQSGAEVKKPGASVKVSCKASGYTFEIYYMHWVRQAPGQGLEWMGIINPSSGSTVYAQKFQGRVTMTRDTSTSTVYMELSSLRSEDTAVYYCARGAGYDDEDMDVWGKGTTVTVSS VL: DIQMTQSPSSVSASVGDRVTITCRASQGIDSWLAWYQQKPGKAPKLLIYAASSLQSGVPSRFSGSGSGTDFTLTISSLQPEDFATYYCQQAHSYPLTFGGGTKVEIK is less than 2 nM?
1

Does the reported Kd of ADI-11825 Fab (Fab, V domains shown, Fab fragment; also called Ab25) VH: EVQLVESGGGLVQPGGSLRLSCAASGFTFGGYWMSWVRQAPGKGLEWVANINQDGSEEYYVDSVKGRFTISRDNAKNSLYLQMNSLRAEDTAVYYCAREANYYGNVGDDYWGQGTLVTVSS VL: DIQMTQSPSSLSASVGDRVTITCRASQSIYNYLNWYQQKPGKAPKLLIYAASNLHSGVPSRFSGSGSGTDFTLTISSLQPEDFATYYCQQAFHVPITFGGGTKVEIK stay below 2 nM?
1
